Biological target: human histamine receptor type 4 (Homo sapiens, UniProt Q9H3N8)
Sequence (Q9H3N8 whole entry): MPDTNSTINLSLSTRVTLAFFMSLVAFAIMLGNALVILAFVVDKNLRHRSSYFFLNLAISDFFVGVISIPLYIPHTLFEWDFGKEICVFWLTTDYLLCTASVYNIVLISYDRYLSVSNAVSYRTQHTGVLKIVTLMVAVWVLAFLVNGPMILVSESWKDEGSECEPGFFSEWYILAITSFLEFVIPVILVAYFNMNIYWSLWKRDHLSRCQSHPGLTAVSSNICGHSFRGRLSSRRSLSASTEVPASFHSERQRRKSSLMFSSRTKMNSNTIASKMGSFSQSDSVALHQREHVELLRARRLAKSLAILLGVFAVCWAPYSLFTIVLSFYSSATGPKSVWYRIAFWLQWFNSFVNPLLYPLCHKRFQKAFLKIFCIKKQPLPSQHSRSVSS
Assay: In vitro histamine receptor cell-based assay, H4R antagonist (aequorin bioluminescence)
Settings: CHO-K1 cells expressing human H4 receptor, aequorin and Gα16; histamine at EC80
Procedure: In Vitro Histamine Receptor Cell-Based Assays The assays are based on an aequorin dependent bioluminescence signal, generated by receptor signaling through Gq/11 or a similarly acting G protein and a resulting transient calcium flux. […] CCD imaging capture on the Lumilux instrument includes a 5 second baseline read prior to agonist addition, generally with a 40 second complete read per plate. […] Negative control activity is measured with DMSO lacking any test compound. […]
API: label(entry) gives t if the entry's IC50 is strictly smaller than 9 µM; on equality or larger values it gives f.

> print(dat)
                                    molecule  category.label
 1  CN(C)CCCn1c2ccccc2c2cc(CN3CCCC(c4ccn[nH]4)C3)ccc21 (centres unmarked)               f
 2       CCn1c2ccccc2c2c(CN3CCN(C)CC3)cccc21               f
 3       CCn1c2ccccc2c2cc(CN3CCN(C)CC3)ccc21               t
 4  c1ccc2c(c1)[nH]c1ccc(CN3CCCC(c4ccn[nH]4)C3)cc12 (centres unmarked)               f
 5  CCn1c2ccccc2c2cccc(CN3CCCC(c4ccn[nH]4)C3)c21 (centres unmarked)               f
 6  CCn1c2ccccc2c2cc(CN3CCCC(C)C3)ccc21 (centres unmarked)               t
 7       CCn1c2ccccc2c2cc(CN3CCC(O)CC3)ccc21               t
 8  CCn1c2ccccc2c2c(CN3CCCC(c4ccn[nH]4)C3)cccc21 (centres unmarked)               f
 9  CCn1c2ccccc2c2cc(CN3CCCC(c4ncc[nH]4)C3)ccc21 (centres unmarked)               t
10           CCn1c2ccccc2c2cc(CN3CCCC3)ccc21               t
11  CCn1c2ccccc2c2ccc(CN3CCCC(c4ccn[nH]4)C3)cc21 (centres unmarked)               f
12  CCn1c2ccccc2c2cc(CN3CCCC(C(=O)NC)C3)ccc21 (centres unmarked)               t
13  CCn1c2ccccc2c2cc(CN3CCCC(c4nnn[nH]4)C3)ccc21 (centres unmarked)               t
14  CCOC(=O)C1CCCN(Cc2ccc3c(c2)c2ccccc2n3CC)C1 (centres unmarked)               t
15  CCn1c2ccccc2c2cc(CN3CCCC(c4nnc[nH]4)C3)ccc21 (centres unmarked)               t
16       CCn1c2ccccc2c2ccc(CN3CCN(C)CC3)cc21               t
17  CCn1c2c(c3cc(CN4CCCC(c5ccn[nH]5)C4)ccc31)CCCC2 (centres unmarked)               t
18          CCn1c2ccccc2c2cc(CN3CCOCC3)ccc21               t
19  CCn1c2ccccc2c2cc(CN3CC(C)CC(C)C3)ccc21 (centres unmarked)               f
20       CCn1c2ccccc2c2cc(CN3CCC(C)CC3)ccc21               t
